Where do the numbers come from? From patent US11306092B2.

target-entity: human TLR9 (Homo sapiens, UniProt Q9NR96)
Construct: host or cells: HEK-Blue cells
Sequence (Q9NR96 26-1032): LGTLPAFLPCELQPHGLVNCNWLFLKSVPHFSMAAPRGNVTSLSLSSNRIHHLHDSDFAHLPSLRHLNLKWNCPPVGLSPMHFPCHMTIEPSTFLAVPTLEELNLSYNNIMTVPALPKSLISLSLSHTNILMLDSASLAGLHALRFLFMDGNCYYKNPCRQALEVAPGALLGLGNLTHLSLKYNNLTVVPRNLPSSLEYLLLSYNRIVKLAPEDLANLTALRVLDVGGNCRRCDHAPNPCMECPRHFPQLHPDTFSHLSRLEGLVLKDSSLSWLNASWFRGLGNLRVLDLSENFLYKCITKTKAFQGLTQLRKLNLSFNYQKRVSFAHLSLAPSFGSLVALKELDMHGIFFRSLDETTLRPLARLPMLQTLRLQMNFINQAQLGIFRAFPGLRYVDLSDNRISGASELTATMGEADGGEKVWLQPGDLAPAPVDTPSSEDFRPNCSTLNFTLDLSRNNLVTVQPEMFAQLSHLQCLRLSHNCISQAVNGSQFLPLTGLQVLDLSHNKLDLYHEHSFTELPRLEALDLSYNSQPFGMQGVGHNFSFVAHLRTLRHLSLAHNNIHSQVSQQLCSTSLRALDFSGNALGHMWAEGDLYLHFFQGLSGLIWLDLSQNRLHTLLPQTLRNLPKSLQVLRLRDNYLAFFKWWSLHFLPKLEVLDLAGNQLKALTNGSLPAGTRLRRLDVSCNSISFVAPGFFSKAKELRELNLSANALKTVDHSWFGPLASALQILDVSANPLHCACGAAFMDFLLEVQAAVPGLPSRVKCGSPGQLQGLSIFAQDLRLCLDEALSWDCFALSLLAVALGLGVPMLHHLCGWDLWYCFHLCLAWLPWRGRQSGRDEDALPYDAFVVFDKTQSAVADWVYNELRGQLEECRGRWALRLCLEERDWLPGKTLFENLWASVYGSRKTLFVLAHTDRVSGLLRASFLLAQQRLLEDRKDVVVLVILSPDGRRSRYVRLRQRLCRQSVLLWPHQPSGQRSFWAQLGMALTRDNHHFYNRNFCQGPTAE
assay-details: TLR9 inhibition reporter assay (HEK-Blue SEAP reporter)
Type: cell-based
assay-conditions: HEK-Blue cells overexpressing human TLR9; ODN2006 5 nM; 22 hour incubation
value-kind: IC50 (nM)
One number for each entry, in nM.

Illustrative cases are given below, each with its answer.
- compound: "CCc1c(-c2ccc(OC)c(OC)c2)[nH]c2ccc(N3CCN(C4CCN(CC)CC4)CC3)cc12"
  observed: 709
- compound: "COc1ccc(-c2[nH]c3ccc(N4CCC(N5CCCNCC5)CC4)cc3c2C(C)C)cc1OC"
  observed: 993
- compound: "COc1ccc(-c2[nH]c3ccc(NC4CCC(NC5CCN(C)CC5)CC4)cc3c2C(C)C)cc1OC (single isomer, unassigned) [Example 41]"
  observed: 991
- compound: "CCc1c(-c2ccc(OC)c(OC)c2)[nH]c2ccc(N3CCC(OC4CCNCC4)CC3)cc12"
  observed: 1050

Q: Fill blank: measured IC50 of the compound COc1ccc(-c2[nH]c3ccc(NC4CCC(N5CCN(CC(C)C)CC5)CC4)cc3c2C(C)C)cc1OC (centres unmarked) [Example 53] is ____.
A: 1210
